Data origin, for the record: paper PMC7529893

// reported percent inhibition (TR-FRET) for each item listed
# measured-target: MAGE-A11:PCF11 interaction (GST-MAGE-A11 and FAM-PCF11_4) (Homo sapiens, UniProt P43364)
# Construct: GST-MAGE-A11 MHD (human MAGE-A11 MHD amino acid 218-429); made in house; host or cells: E. coli BL21(DE3)
# Sequence (P43364 218-429): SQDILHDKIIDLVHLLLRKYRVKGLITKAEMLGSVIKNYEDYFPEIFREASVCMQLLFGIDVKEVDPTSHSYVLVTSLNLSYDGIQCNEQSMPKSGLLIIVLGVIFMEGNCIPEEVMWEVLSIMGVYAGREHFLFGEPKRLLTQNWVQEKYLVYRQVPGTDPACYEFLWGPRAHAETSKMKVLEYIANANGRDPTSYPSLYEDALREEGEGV
# assay-procedure: TR-FRET primary / single point screen at 15 µM
# Type: binding
# condition-info: single point TR-FRET screening of 797 quinoline compounds against MAGE-A11:PCF11
Just the number, please.

Example entries and their recorded answers appear below.
>>> reported_measurement("CCOC(=O)c1cnc2c(C)c(C)ccc2c1NCCN(C)C [SJ000134078]")
8.5376
>>> reported_measurement("COc1ccccc1N1CCN(c2c(S(=O)(=O)c3ccc(Cl)cc3)cnc3ccc(C)cc23)CC1 [SJ000117070]")
-15.3715
>>> reported_measurement("COc1ccc(S(=O)(=O)N2CCN(c3ccnc4cc(Cl)ccc34)CC2)cc1 [SJ000199955]")
-32.0719

In: GET /values?readout=percent inhibition (TR-FRET)&item= COc1ccc2nc3cc(Cl)ccc3c(NCCCNCC3CCCCC3)c2c1 [SJ000361090]
Out: -411.15
